B1: DVL3 (parent)
chain: FCADNPSELPPPMERTGGIGDSRP

# Variants of: B1
# test.name: protein stability index of a GFP-peptide fusion (GPS, HEK-293T) (PSI 1-6); higher = more stable;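 note: lentivirally expressed fusions sorted by FACS into six bins by GFP to DsRed ratio, PSI derived from sequencing read proportions per bin multiplied by bin number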
# test.conditions: c terminus: a fixed tail appended
Listing: protein stability index of selected variants
I only need the number, thanks.

construct.sequence: FCADNPSELPPPMERTGGIPDSRP [G20P]
protein stability index: 5.08
--
construct.sequence: FCADNPSELPPPMERTGGIGESRP [D21E]
protein stability index: 5.27
--
construct.sequence: FCADNPSELFPPMERTGGIGDSRP [P10F]
protein stability index: 3.41
--
construct.sequence: FCADNPSELPPPGERTGGIGDSRP [M13G]
protein stability index: 4.67
--
construct.sequence: FCADNDSELPPPMERTGGIGDSRP [P6D]
protein stability index: 4.03
--
construct.sequence: FCADNPSEQPPPMERTGGIGDSRP [L9Q]
protein stability index: 4.16
--
construct.sequence: FCADNPSILPPPMERTGGIGDSRP [E8I]
protein stability index: 3.88
--
construct.sequence: FCADNPSELPPPMEITGGIGDSRP [R15I]
protein stability index: 4.56

protein stability index measured on FCADNPSELPGPMERTGGIGDSRP [P11G] = 4.16

protein stability index measured on FCADNPSELAPPMERTGGIGDSRP [P10A] = 4.29

protein stability index measured on FCADNPSELPPPMERTGGIGDCRP [S22C] = 3.55

protein stability index measured on FCADNPSELQPPMERTGGIGDSRP [P10Q] = 4.27

protein stability index measured on FCADNPSELWPPMERTGGIGDSRP [P10W] = 3.13

protein stability index measured on FCADNASELPPPMERTGGIGDSRP [P6A] = 4.71

protein stability index measured on FCADNPSELPPPMERMGGIGDSRP [T16M] = 4.11

protein stability index measured on FCADNPSELPPPMERTGGNGDSRP [I19N] = 4.82
